- Tested on: HL-60
- test_name: NCI tumour cell line growth inhibition, 48 h
Activity calls are given as the source filed them. No stated cut-off is given here; in the data, active = GI50 up to about 1.1 µM and inactive = higher.
Choose the fitting class; nothing outside TRUE for active, FALSE for inactive is accepted.

Past entries and their recorded results:
compound	qualitative_label
COc1ccc(/C=C2\CC3C4CC=C5C[C@@H](O)CC[C@]5(C)C4CC[C@]3(C)C2=O)cc1OC (stereo partly specified)	FALSE
Fc1ccc(C(OCCN2CCN(CCCc3ccccc3)CC2)c2ccc(F)cc2)cc1	FALSE
Nc1cc(O)c2cc(/N=N/c3ccc(/N=N/c4ccc(/N=N/c5ccc6cc(S(=O)(=O)O)cc(S(=O)(=O)O)c6c5)c5ccccc45)c4cc(S(=O)(=O)O)ccc34)c(S(=O)(=O)O)cc2c1	FALSE
O=C1c2cccc3cccc(c23)C(=O)N1O	FALSE

**Query** Each compound tested received a call. Report the one for COc1cc2c(cc1OC)-c1c3c(cc4c1[C@@H](C2)N(C)CC4)OCO3 .
**Result** FALSE

**Query** One more compound: N#C/C(=C\c1cc(Br)c(O)c(Br)c1)c1ccccn1
**Result** FALSE

**Query** Item: O=C(CN1CCCCC1)N1CCc2c([nH]c3ccccc23)C1c1cccnc1 (stereo unspecified)
**Result** FALSE

* * *

- System: MOLT-4
- test_name: NCI tumour cell line growth inhibition, 48 h
Activity calls are given as the source filed them. Rule as the data show it: active = GI50 up to about 1.1 µM and inactive = higher.
reported_property: GI50

compound	reported
COc1cc(/C=C/C(=O)O)ccc1C(=O)OCc1ccccc1	> 100 µM (inactive)
CC1CCCC(C(O)CC2CC(=O)N(c3ccccc3)C(=O)C2)C1=O (stereo not given)	> 100 µM (inactive)
N#C/C(=C/c1ccco1)C(=O)c1ccccc1	> 100 µM (inactive)
O=C(NNC(=O)c1ccccc1O)c1ccc(O)cc1	36.4 µM (inactive)
c1ccc(OCCSCCCCCCCCCCSCCOc2ccccc2)cc1	> 100 µM (inactive)
COC(=O)c1cc2c3c(cc(N(C)C)c2[nH]1)N(C(=O)c1cc2cc(OC)c(OC)c(OC)c2[nH]1)CC3CCl (stereo not given)	< 0.0025 µM (active)
CNC(=S)NNc1ncnc2c1ncn2-c1ccc(C)cc1	> 100 µM (inactive)
CCCCCCCCCCCCCCCCP(=O)([O-])OCC[N+](C)(C)C	17.2 µM (inactive)
COc1ccc(/C(Cl)=C(\C=O)c2ccc(OC)c(OC)c2)cc1	28.6 µM (inactive)
Cc1ccc(S(=O)(=O)NC(=O)C2=C(c3ccccc3)[N-]N(C)c3nc4cccc[n+]4nc32)cc1	99.5 µM (inactive)

**Query** Quick check: GI50 of CCN(CC)c1ccc2cc(-c3nnc(-c4ccccc4)o3)c(=O)oc2c1 ?
**Result** 0.413 µM (active)

**Query** Try this compound too: O=C(OCC(Cl)(Cl)Cl)O[C@@H]1CCCC1(c1ccccc1)c1ccccc1
**Result** 6.81 µM (inactive)

**Query** // next record COc1cc(I)c2c3c1OC1C34CCN(C)C(C2)C4=CC(I)C1(OC)OC (stereo not given)
**Result** 16.2 µM (inactive)

**Query** // query: OCC1=C[C@@](COCc2ccccc2)(OCc2ccccc2)[C@@H](OCc2ccccc2)[C@@H]1OCc1ccccc1
**Result** 4.57 µM (inactive)

**Query** What about this compound? C/C(=N\NC(=O)N/N=C(\C)c1ccccn1)c1ccccn1
**Result** 0.555 µM (active)

**Query** What about this compound? COc1cc(/C=C/C(=O)CC(=O)/C=C/c2ccc(O)c(OC)c2)ccc1O
**Result** 4.68 µM (inactive)

**Query** CC1(C)C(C#N)C1C1=C(N2CCOCC2)[C@]2(C)C(OC(=O)c3ccccc3)CC[C@@H]2C1 (stereo not given in full) ?
**Result** 34.9 µM (inactive)

**Query** Queued: COc1cccc(C(=O)C#Cc2cnc(OC)nc2OC)c1
**Result** 0.155 µM (active)

**Query** Then this compound: COc1ccc2nc3cc(Cl)ccc3c(NCCNCCCNC(=O)c3cc(-c4ccccc4)nc4ccccc34)c2c1
**Result** > 100 µM (inactive)

**Query** Follow-up item: CN(C)CCCOC(=O)C(c1ccccc1)C1(O)CCSCC1 (stereo not given)
**Result** > 100 µM (inactive)

Hello, the source for this data is ChEMBL document CHEMBL1201862, in case you need it.
